// reported pKd per item
Target: T1, EsCas13d, nuclease-dead (Eubacterium siraeum, UniProt B0MS50, R295A;H300A;R849A;H854A)
T1 sequence: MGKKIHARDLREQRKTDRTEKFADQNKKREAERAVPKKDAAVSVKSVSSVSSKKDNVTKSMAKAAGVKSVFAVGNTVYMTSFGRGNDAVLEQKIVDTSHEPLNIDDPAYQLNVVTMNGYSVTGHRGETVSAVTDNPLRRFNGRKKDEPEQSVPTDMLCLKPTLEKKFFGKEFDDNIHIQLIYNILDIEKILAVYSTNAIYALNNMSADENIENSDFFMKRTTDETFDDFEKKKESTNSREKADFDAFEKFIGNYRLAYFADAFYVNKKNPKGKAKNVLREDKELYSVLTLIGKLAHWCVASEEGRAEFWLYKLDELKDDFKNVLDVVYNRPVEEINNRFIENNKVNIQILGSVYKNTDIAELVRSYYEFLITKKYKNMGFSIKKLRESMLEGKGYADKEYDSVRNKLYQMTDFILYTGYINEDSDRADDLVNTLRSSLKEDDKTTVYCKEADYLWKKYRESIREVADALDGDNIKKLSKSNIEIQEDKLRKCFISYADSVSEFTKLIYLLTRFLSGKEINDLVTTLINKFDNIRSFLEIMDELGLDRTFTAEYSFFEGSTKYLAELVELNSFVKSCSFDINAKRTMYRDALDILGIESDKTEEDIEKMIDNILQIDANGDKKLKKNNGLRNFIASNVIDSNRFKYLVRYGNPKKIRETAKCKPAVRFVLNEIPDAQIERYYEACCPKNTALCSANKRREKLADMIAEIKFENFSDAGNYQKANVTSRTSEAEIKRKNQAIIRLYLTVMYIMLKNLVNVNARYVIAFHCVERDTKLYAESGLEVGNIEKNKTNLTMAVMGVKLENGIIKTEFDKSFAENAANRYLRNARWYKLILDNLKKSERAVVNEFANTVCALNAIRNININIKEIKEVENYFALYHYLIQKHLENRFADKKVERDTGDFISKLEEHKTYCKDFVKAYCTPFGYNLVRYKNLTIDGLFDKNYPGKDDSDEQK
Test: crRNA (strand 1, pre-loaded); Mg2+; 40 mM Tris-HCl pH 7.5, 150 mM NaCl, 6 mM MgCl2, 1 mM DTT, 0.1% Tween-20, 0.2 mg/ml BSA; 25 C; 10 min per concentration, then washed
Conditions: tags: His6-TwinStrep-SUMO cleaved; N-terminal SNAP kept (SNAP-Surface 488); label: 3' end held by stalled T7 RNA polymerase
pKd: −log10 of the molar value.
readout.type: pKd

[[record]]
binder = "target 1 G5C,A9G (mixed) RNA 1: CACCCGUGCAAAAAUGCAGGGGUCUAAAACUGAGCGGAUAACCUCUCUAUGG RNA 2: GGGAAUGGAUCCACAUCUACGAAUUCGUACCAUAGAGAGGUUGUCCCCUCACCGAGAUCGGAAGAGCACACGU"
readout_type = "pKd"
reported_value = 8.05

[[record]]
binder = "target 1 MT 5'PFS CAA 3'PFS AUU (mixed) RNA 1: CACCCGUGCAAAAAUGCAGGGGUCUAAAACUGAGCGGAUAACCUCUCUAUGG RNA 2: GGGAAUGGAUCCACAUCUACGAAUUCCAACCAUAGAGAGGUUAUCCGCUCAAUUAGAUCGGAAGAGCACACGU"
readout_type = "pKd"
reported_value = 8.01

[[record]]
binder = "target 1 MT 5'PFS UAA 3'PFS UUC (mixed) RNA 1: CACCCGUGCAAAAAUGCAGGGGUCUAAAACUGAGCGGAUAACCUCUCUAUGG RNA 2: GGGAAUGGAUCCACAUCUACGAAUUCUAACCAUAGAGAGGUUAUCCGCUCAUUCAGAUCGGAAGAGCACACGU"
readout_type = "pKd"
reported_value = 7.64

[[record]]
binder = "target 1 insC 3' of 14,insU 3' of 2 (mixed) RNA 1: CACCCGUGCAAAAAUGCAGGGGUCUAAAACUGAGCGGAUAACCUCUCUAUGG RNA 2: GGGAAUGGAUCCACAUCUACGAAUUCGUACCAUAGAGACGGUUAUCCGCUCUACCGAGAUCGGAAGAGCACACGU"
readout_type = "pKd"
reported_value = 7.23


Reference source for all entries: paper PMC10786891
